The reported numbers originate from ChEMBL document CHEMBL1132635.

- measured_on: Adenosine receptor A3 (Homo sapiens)
- Sequence (P0DMS8 whole entry): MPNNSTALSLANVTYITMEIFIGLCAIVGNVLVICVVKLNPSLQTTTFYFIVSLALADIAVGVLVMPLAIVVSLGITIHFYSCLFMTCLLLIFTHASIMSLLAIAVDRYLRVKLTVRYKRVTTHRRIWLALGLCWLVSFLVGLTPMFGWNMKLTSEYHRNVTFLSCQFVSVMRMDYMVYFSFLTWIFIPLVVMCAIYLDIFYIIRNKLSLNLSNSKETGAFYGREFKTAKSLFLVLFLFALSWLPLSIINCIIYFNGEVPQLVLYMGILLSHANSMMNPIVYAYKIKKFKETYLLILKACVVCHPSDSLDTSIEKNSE
- experiment: Displacement of [125I]AB-MECA from human Adenosine A3 receptor expressed in HEK 293 cells
- Assay type: cell-based, HEK293
result_type: pKi
The read-out pKi is expressed as -log10 of concentration in moles per litre.

QUERY: Observed pKi on Adenosine receptor A3 (Homo sapiens) for CNC(=O)C[C@H]1OC(n2cnc3c(NCc4cccc(I)c4)nc(Cl)nc32)[C@@H](O)[C@H]1O (stereo partly specified) , please.
RESULT: 9.48

---

inhibition values, listed per item
- measured_on: UniProtKB P0DMS8
- experiment: Inhibition of forskolin-induced c-AMP production by adenosine A3 receptor with 10 uM NECA
- Format: functional
Enter your answer as a number in %; do not include the unit.

QUERY: Can you look up the measured inhibition of CSC[C@H]1O[C@@H](n2cnc3c(NCc4ccccc4)ncnc32)[C@H](O)[C@@H]1O for me?
RESULT: 93

QUERY: Can you look up the measured inhibition of CSC[C@H]1O[C@@H](n2cnc3c(NCc4cccc(I)c4)ncnc32)[C@H](O)[C@@H]1O for me?
RESULT: 87

QUERY: Can you look up the measured inhibition of OC[C@H]1O[C@@H](n2cnc3c(NCc4ccccc4)ncnc32)[C@H](O)[C@@H]1O for me?
RESULT: 94

QUERY: Can you look up the measured inhibition of OC[C@H]1O[C@@H](n2cnc3c(NCc4cccc(I)c4)ncnc32)[C@H](O)[C@@H]1O for me?
RESULT: 91

---

- measured_on: Adenosine receptor A2a (Rattus norvegicus)
- Sequence (P30543 whole entry): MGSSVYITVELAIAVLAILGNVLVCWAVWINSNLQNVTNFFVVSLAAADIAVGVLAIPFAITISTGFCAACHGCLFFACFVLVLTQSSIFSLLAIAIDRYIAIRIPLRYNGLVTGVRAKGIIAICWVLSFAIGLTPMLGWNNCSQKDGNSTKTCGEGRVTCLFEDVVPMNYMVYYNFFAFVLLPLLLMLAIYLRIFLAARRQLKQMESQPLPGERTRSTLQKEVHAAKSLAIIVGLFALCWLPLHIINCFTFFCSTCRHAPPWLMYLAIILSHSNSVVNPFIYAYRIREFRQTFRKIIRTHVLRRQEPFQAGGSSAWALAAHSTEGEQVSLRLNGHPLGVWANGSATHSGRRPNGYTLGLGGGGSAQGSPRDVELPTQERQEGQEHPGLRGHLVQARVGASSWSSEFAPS
- experiment: Percentage displacement of [3H]-CGS- 21680 from Adenosine A2A receptor of rat striatal membranes at 10 uM
- Assay type: cell membranes
- test_conditions: Membrane
Displacement values, listed per item
Enter your answer as a number in %; do not include the unit.

Some solved cases for reference:
[
  {
    "smiles_repr": "CCSC[C@H]1O[C@@H](n2cnc3c(NCc4ccccc4)ncnc32)[C@H](O)[C@@H]1O",
    "result_type": "Displacement",
    "units_label": "%",
    "recorded_measurement": 38
  },
  {
    "smiles_repr": "CC(C)SC[C@H]1O[C@@H](n2cnc3c(NCc4ccccc4)ncnc32)[C@H](O)[C@@H]1O",
    "result_type": "Displacement",
    "units_label": "%",
    "recorded_measurement": 6
  },
  {
    "smiles_repr": "CC(C)SC[C@H]1O[C@@H](n2cnc3c(NCc4cccc(I)c4)ncnc32)[C@H](O)[C@@H]1O",
    "result_type": "Displacement",
    "units_label": "%",
    "recorded_measurement": 45
  },
  {
    "smiles_repr": "CCCSC[C@H]1O[C@@H](n2cnc3c(NCc4cccc(I)c4)ncnc32)[C@H](O)[C@@H]1O",
    "result_type": "Displacement",
    "units_label": "%",
    "recorded_measurement": 42
  }
]

QUERY: Can you look up the measured Displacement of CSC[C@H]1O[C@@H](n2cnc3c(NCc4ccccc4)ncnc32)[C@H](O)[C@@H]1O for me?
RESULT: 25

---

- measured_on: Adenosine receptor A2a (Rattus norvegicus)
- experiment: Displacement of [3H]-CGS- 21680 from Adenosine A2A receptor of rat striatal membranes
- Format: cell membranes, Membrane
result_type: Ki (nM)
Enter your answer as a number in nM; do not include the unit.

Some solved cases for reference:
[
  {
    "smiles_repr": "O[C@@H]1[C@H](O)[C@@H](CCl)O[C@H]1n1cnc2c(NCc3ccccc3)ncnc21",
    "measured_on": "Adenosine receptor A2a (Rattus norvegicus)",
    "result_type": "Ki",
    "recorded_measurement": 641
  },
  {
    "smiles_repr": "OC[C@H]1O[C@@H](n2cnc3c(NCc4ccccc4)ncnc32)[C@H](O)[C@@H]1O",
    "measured_on": "Adenosine receptor A2a (Rattus norvegicus)",
    "result_type": "Ki",
    "recorded_measurement": 733
  },
  {
    "smiles_repr": "CCSC[C@H]1O[C@@H](n2cnc3c(NCc4cccc(I)c4)ncnc32)[C@H](O)[C@@H]1O",
    "measured_on": "Adenosine receptor A2a (Rattus norvegicus)",
    "result_type": "Ki",
    "recorded_measurement": 1080
  },
  {
    "smiles_repr": "CCCSC[C@H]1O[C@@H](n2cnc3c(NCc4ccccc4)ncnc32)[C@H](O)[C@@H]1O",
    "measured_on": "Adenosine receptor A2a (Rattus norvegicus)",
    "result_type": "Ki",
    "recorded_measurement": 7990
  },
  {
    "smiles_repr": "O[C@@H]1[C@H](O)[C@@H](CCl)O[C@H]1n1cnc2c(NCc3cccc(I)c3)ncnc21",
    "measured_on": "Adenosine receptor A2a (Rattus norvegicus)",
    "result_type": "Ki",
    "recorded_measurement": 457
  }
]

QUERY: Can you look up the measured Ki of CSC[C@H]1O[C@@H](n2cnc3c(NCc4cccc(I)c4)ncnc32)[C@H](O)[C@@H]1O for me?
RESULT: 1820
